src = patent US12435066B2

# SUBJECT_OF_TEST: hSOS1 mediated nucleotide exchange on hKRASG12C (Homo sapiens, UniProt Q07889)
# Sequence (Q07889 564-1049): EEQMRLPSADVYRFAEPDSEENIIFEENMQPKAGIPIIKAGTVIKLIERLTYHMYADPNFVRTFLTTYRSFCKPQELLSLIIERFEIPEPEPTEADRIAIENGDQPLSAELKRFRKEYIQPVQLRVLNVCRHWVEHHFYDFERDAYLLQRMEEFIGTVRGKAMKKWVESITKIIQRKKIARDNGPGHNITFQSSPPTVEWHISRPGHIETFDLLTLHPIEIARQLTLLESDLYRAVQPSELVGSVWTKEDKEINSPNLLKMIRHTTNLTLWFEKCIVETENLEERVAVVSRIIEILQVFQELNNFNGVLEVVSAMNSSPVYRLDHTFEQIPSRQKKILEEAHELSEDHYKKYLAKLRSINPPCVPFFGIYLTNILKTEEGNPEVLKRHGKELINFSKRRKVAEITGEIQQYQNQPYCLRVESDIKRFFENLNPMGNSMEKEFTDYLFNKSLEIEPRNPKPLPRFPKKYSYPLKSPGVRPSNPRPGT

[
  {
    "MOLECULE": "Cc1nc(N[C@H](C)c2cc(N)cc(C(F)(F)F)c2)c2cc(N3CCOCC3)c3c(c2n1)CC(C)O3 (mixture of isomers) [Compound 117a]",
    "SUBJECT_OF_TEST": "hSOS1 mediated nucleotide exchange on hKRASG12C (Homo sapiens, UniProt Q07889)",
    "IC50": "31 to 70 nM"
  },
  {
    "MOLECULE": "Cc1nc(N[C@H](C)c2cccc(C(F)(F)C(C)(C)O)c2F)c2cc(N3CC4(COC4)C3)c3c(c2n1)CCC3",
    "SUBJECT_OF_TEST": "hSOS1 mediated nucleotide exchange on hKRASG12C (Homo sapiens, UniProt Q07889)",
    "IC50": "1 to 30 nM"
  },
  {
    "MOLECULE": "Cc1nc(N[C@H](C)c2cc(N)cc(C(F)(F)F)c2)c2cc(N3CCC(C)(O)C3)c3c(c2n1)CCC3 (single isomer, unassigned) [Compound 55a]",
    "SUBJECT_OF_TEST": "hSOS1 mediated nucleotide exchange on hKRASG12C (Homo sapiens, UniProt Q07889)",
    "IC50": "31 to 70 nM"
  },
  {
    "MOLECULE": "Cc1nc(N[C@H](C)c2cc(N)cc(C(F)(F)F)c2)c2cc(N3CCOCC3=O)c3c(c2n1)CCC3",
    "SUBJECT_OF_TEST": "hSOS1 mediated nucleotide exchange on hKRASG12C (Homo sapiens, UniProt Q07889)",
    "IC50": "71 to 130 nM"
  },
  {
    "MOLECULE": "Cc1nc(N[C@H](C)c2cc(N)cc(C(F)(F)F)c2)c2cc(N3CCOCC3)c3c(c2n1)CC(C)(C)O3",
    "SUBJECT_OF_TEST": "hSOS1 mediated nucleotide exchange on hKRASG12C (Homo sapiens, UniProt Q07889)",
    "IC50": "1 to 30 nM"
  },
  {
    "MOLECULE": "Cc1nc(N[C@H](C)c2cc(N)cc(C(F)(F)F)c2)c2cc(N3CCC(O)(CO)CC3)c3c(c2n1)CCC3",
    "SUBJECT_OF_TEST": "hSOS1 mediated nucleotide exchange on hKRASG12C (Homo sapiens, UniProt Q07889)",
    "IC50": "1 to 30 nM"
  }
]

---

Target protein (sequence): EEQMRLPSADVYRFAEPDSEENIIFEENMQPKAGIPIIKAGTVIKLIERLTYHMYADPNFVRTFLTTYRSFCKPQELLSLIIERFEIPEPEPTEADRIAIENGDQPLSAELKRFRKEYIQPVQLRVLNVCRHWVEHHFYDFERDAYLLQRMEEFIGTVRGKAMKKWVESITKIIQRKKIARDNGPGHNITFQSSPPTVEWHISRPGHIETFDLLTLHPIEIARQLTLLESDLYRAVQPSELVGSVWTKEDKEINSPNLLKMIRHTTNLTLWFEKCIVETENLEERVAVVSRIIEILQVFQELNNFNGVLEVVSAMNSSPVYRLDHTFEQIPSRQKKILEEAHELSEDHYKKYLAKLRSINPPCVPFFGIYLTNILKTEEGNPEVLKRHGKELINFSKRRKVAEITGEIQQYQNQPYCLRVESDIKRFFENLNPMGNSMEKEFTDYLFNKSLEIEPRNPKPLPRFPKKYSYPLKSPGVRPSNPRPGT
pIC50: −log10 of the molar value.
Below: a set of entries, each annotated with reported pIC50.
VALUE_TYPE: pIC50

[
  {
    "COMPOUND": "Cc1nc(NC(C)c2cc(N)cc(C(F)F)c2)c2cc(N3CC4(COC4)C3)c3c(c2n1)CCC3 (racemic)",
    "VALUE_TYPE": "pIC50",
    "RESULT": "7.52 to 9.00"
  },
  {
    "COMPOUND": "COCC1(O)CCN(c2cc3c(N[C@H](C)c4cccc(C(F)(F)COC)c4F)nc(C)nc3c3c2CCC3)CC1",
    "VALUE_TYPE": "pIC50",
    "RESULT": "7.52 to 9.00"
  },
  {
    "COMPOUND": "Cc1nc(N[C@H](C)c2cc(N)cc(C(F)(F)F)c2)c2cc(NC3COC3)c3c(c2n1)CCC3",
    "VALUE_TYPE": "pIC50",
    "RESULT": "7.15 to 7.51"
  },
  {
    "COMPOUND": "Cc1nc(N[C@H](C)c2cccc(C(F)(F)C(C)(C)O)c2F)c2cc(N3CCOCC3)c3c(c2n1)CCC3",
    "VALUE_TYPE": "pIC50",
    "RESULT": "7.52 to 9.00"
  }
]

---

Reported IC50 values for the following compounds.
# System: DLD-1 cell line
# PROCEDURE_TEXT: Colony formation assay (single agent activity)
# Assay type: cell-based
# TEST_CONDITIONS: Homo sapiens, 168 h, 7 days of drug treatment, crystal violet
VALUE_TYPE: IC50

[
  {
    "COMPOUND": "Cc1nc(N[C@H](C)c2cccc(C(F)(F)[C@](C)(O)CO)c2F)c2cc(N3CCOCC3)c3c(c2n1)CCC3 (racemic) [Compound 82a]",
    "RESULT": "0.5 to 6 µM"
  },
  {
    "COMPOUND": "Cc1nc(N[C@H](C)c2cc(N)cc(C(F)(F)F)c2)c2cc(-c3ccc(=O)n(C)c3)c3c(c2n1)CCC3",
    "RESULT": "0.5 to 6 µM"
  }
]

---

Protein target, amino acids: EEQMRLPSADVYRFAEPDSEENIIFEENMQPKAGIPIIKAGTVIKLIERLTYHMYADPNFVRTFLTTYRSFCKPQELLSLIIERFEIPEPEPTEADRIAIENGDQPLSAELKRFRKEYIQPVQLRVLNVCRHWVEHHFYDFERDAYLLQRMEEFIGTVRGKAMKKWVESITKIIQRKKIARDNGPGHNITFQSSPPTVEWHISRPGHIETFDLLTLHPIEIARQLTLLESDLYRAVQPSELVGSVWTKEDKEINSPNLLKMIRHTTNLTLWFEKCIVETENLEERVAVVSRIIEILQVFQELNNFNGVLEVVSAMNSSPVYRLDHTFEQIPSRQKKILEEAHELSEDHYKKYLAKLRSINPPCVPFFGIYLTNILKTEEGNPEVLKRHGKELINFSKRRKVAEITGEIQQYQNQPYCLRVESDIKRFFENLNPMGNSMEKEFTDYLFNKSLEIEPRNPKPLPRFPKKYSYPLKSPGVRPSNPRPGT
VALUE_TYPE: IC50

[
  {
    "MOLECULE": "Cc1nc(NC(C)c2cc(N)cc(C(F)F)c2)c2cc(N3CC4(COC4)C3)c3c(c2n1)CCC3 (racemic)",
    "VALUE_TYPE": "IC50",
    "RESULT": "1 to 10 nM"
  },
  {
    "MOLECULE": "Cc1nc(N[C@H](C)c2cc(N)cc(C(F)(F)F)c2)c2cc(N3CCOCC3)c3c(c2n1)CCC3",
    "VALUE_TYPE": "IC50",
    "RESULT": "1 to 10 nM"
  },
  {
    "MOLECULE": "Cc1nc(N[C@H](C)c2cc(N)cc(C(F)(F)F)c2)c2cc(N3CCC(C)(O)C3)c3c(c2n1)CCC3 (single isomer, unassigned) [Compound 55a]",
    "VALUE_TYPE": "IC50",
    "RESULT": "11 to 20 nM"
  },
  {
    "MOLECULE": "Cc1nc(N[C@H](C)c2cccc(C(F)(F)C(C)(C)O)c2F)c2cc(N3C[C@@H]4[C@@H](CO)[C@@H]4C3)c3c(c2n1)CCC3",
    "VALUE_TYPE": "IC50",
    "RESULT": "1 to 10 nM"
  },
  {
    "MOLECULE": "Cc1nc(N[C@H](C)c2cccc(C(F)(F)C(C)O)c2F)c2cc(N3CC4(COC4)C3)c3c(c2n1)CCC3 (single isomer, unassigned) [Compound 73a]",
    "VALUE_TYPE": "IC50",
    "RESULT": "1 to 10 nM"
  },
  {
    "MOLECULE": "Cc1nc(N[C@H](C)c2cc(N)cc(C(F)(F)F)c2)c2cc(O[C@H]3CCOC3)c3c(c2n1)CCC3",
    "VALUE_TYPE": "IC50",
    "RESULT": "11 to 20 nM"
  },
  {
    "MOLECULE": "Cc1nc(N[C@H](C)c2cccc(C(F)(F)CO)c2F)c2cc(N3CC[C@@H](O)C3)c3c(c2n1)CCC3",
    "VALUE_TYPE": "IC50",
    "RESULT": "1 to 10 nM"
  },
  {
    "MOLECULE": "Cc1nc(N[C@H](C)c2cccc(C(F)(F)C(C)(C)O)c2F)c2cc(N3CCOCC3)c3c(c2n1)CCC3",
    "VALUE_TYPE": "IC50",
    "RESULT": "1 to 10 nM"
  },
  {
    "MOLECULE": "COC[C@H]1CN(c2cc3c(N[C@H](C)c4cccc(C(F)(F)C(C)(C)O)c4F)nc(C)nc3c3c2CCC3)CCO1",
    "VALUE_TYPE": "IC50",
    "RESULT": "1 to 10 nM"
  },
  {
    "MOLECULE": "Cc1nc(N[C@H](C)c2cc(N)cc(C(F)(F)F)c2)c2cc(N3CC[C@@H](O)C3)c3c(c2n1)CCC3",
    "VALUE_TYPE": "IC50",
    "RESULT": "11 to 20 nM"
  },
  {
    "MOLECULE": "Cc1nc(N[C@H](C)c2cc(N)cc(C(F)(F)F)c2)c2cc(N3CCC(O)(CO)CC3)c3c(c2n1)CCC3",
    "VALUE_TYPE": "IC50",
    "RESULT": "1 to 10 nM"
  },
  {
    "MOLECULE": "Cc1nc(N[C@H](C)c2cc(N)cc(C(F)(F)F)c2)c2cc(O[C@H]3CCOC3)c3c(c2n1)CC(C)(C)O3",
    "VALUE_TYPE": "IC50",
    "RESULT": "11 to 20 nM"
  },
  {
    "MOLECULE": "Cc1nc(N[C@H](C)c2cccc(C(F)(F)[C@@](C)(O)CO)c2F)c2cc(N3CCOCC3)c3c(c2n1)CCC3 (racemic) [Compound 82b]",
    "VALUE_TYPE": "IC50",
    "RESULT": "1 to 10 nM"
  }
]
